Provide the recorded IC50 for the entries that follow.
- Measured Target: BACE1 (Homo sapiens (Human))
- Test: In vitro enzymatic BACE1 FRET assay
- Type: biochemical
- Study Conditions: pH 4.5, read-out: BACE1 Enzyme IC50
- Sequence (P56817 46-501): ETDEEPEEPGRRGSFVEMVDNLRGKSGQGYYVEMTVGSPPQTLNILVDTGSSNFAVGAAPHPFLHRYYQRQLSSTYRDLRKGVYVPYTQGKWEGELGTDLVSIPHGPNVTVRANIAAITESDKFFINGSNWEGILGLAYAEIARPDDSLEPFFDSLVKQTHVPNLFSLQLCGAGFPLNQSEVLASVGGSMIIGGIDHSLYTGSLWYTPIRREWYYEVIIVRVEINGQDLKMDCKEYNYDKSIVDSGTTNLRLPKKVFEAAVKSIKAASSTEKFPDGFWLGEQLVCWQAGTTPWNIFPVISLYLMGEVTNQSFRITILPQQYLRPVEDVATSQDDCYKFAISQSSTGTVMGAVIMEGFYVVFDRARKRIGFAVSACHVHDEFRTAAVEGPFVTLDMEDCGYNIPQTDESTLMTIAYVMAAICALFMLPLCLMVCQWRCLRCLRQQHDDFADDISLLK
One number for each entry, in nM.

I have 7 molecules here; please give me IC50 for each one.
1. C#Cc1ccc(F)c([C@@]2(C)N=C(N)S[C@@]3(C(=O)N(C)C)C[C@H]32)c1 [Example 123d]
2. Cc1cc(C#N)cnc1C#Cc1cnc(F)c([C@@]2(C)N=C(N)S[C@@]3(C(=O)N4CCCC4)CC32)c1 (stereo partly shown)
3. Cc1cc(C#N)cnc1C#Cc1ccc(F)c([C@@]2(CF)N=C(N)S[C@@]3(/C=C/C(=O)N4CCOCC4)C[C@H]32)c1
4. Cc1cc(C#N)cnc1C#Cc1ccc(F)c([C@@]2(CF)N=C(N)S[C@@]3(CCC(=O)N4CCOCC4)C[C@H]32)c1
5. C#CCOc1ccc(C#Cc2ccc(F)c([C@@]3(C)N=C(N)S[C@@]4(C(=O)N(C)C)C[C@H]43)c2)nc1
6. N#Cc1ccc(C#Cc2ccc(F)c([C@@]3(CF)N=C(N)S[C@@]4(/C=C/C(=O)N5CCOCC5)C[C@H]43)c2)cc1
7. C[C@]1(c2cc(C#Cc3ccc(C#N)cn3)cnc2F)N=C(N)S[C@@]2(CF)C[C@H]21

A.
1: 378; 2: 11; 3: 5; 4: 11; 5: 161; 6: 10; 7: 637

---

Provide the recorded IC50 for the entries that follow.
- Measured Target: BACE1 (Homo sapiens (Human))
- Test: In vitro enzymatic BACE1 FRET assay
- Format: biochemical
- Study Conditions: pH 4.5, read-out: BACE1 Enzyme IC50
One number for each entry, in nM.

N#Cc1ccc(C#Cc2ccc(F)c([C@@]3(CF)N=C(N)S[C@@]4(Cn5ccnc5)C[C@H]43)c2)nc1 ... 583
N#Cc1ccc(C#Cc2ccc(F)c([C@@]3(CF)N=C(N)S[C@@]4(/C=C/C(=O)N5CCOCC5)C[C@H]43)c2)nc1 ... 19
N#Cc1cnc(C#Cc2ccc(F)c([C@@]3(CF)N=C(N)S[C@@]4(/C=C/C(=O)N5CCOCC5)C[C@H]43)c2)nc1 ... 9
N#Cc1ccc(C#Cc2ccc(F)c([C@@]3(CF)N=C(N)S[C@@]4(CC(N)=O)C[C@H]43)c2)nc1 ... 116
Cc1cn(C[C@]23C[C@H]2[C@@](CF)(c2cc(C#Cc4ccc(C#N)cn4)ccc2F)N=C(N)S3)nn1 ... 109

I have 4 compounds here; please give me IC50 for each one.
1. Cc1cc(C#N)cnc1C#Cc1ccc(F)c([C@@]2(C)N=C(N)S[C@@]3(C#N)C[C@H]32)c1
2. NC1=N[C@](CF)(c2cc(C#Cc3cc(Cl)ccn3)ccc2F)[C@@H]2C[C@]2(CF)S1
3. CN(C)C(=O)[C@]12C[C@H]1[C@@](C)(c1cc(C#CC3CC3)ccc1F)N=C(N)S2
4. N#Cc1cnc(C#Cc2ccc(F)c([C@@]3(CF)N=C(N)S[C@@]4(CF)C[C@H]43)c2)cn1

A.
[21, 1120, 20, 86]

---

- Measured Target: BACE1 (Homo sapiens (Human), UniProt P56817)
- Test: In vitro BACE1 cell-based assay (Aβ40 in conditioned medium of cells stably expressing APP, HTRF)
- Study Conditions: Aβ40, 24 h incubation; read-out: BACE1 Cell IC50
- Sequence (P56817 46-501, species assumed): as the sequence (P56817 46-501) above
Property: log10(IC50) (log10 of the value in nM)
Plainly stated, the numbers are log10 of IC50 given in nM.

N#C/C=C/[C@]12C[C@H]1[C@@](CF)(c1cc(C#Cc3ccc(C#N)cn3)ccc1F)N=C(N)S2 ... 2.57
Cc1cc(OCc2ncco2)cnc1C#Cc1ccc(F)c([C@@]2(C)N=C(N)S[C@@]3(C(=O)N(C)C)C[C@H]32)c1 ... 1.72
Cc1cc(C#N)cnc1C#Cc1ccc(F)c([C@@]2(C)N=C(N)S[C@@]3(C(=O)N(C)C)C[C@H]32)c1 ... 0.48

I have 8 compounds here; please give me log10(IC50) for each one.
1. N#CC[C@]12C[C@H]1[C@@](CF)(c1cc(C#Cc3ccc(C#N)cn3)ccc1F)N=C(N)S2
2. CN(C)C(=O)[C@]12C[C@H]1[C@@](C)(c1cc(C#CC3CC3)ccc1F)N=C(N)S2
3. N#Cc1cnc(C#Cc2ccc(F)c([C@@]3(CF)N=C(N)S[C@@]4(CF)C[C@H]43)c2)s1
4. N#Cc1ccc(C#Cc2ccc(F)c([C@@]3(CF)N=C(N)S[C@@]4(CO)C[C@H]43)c2)nc1
5. N#Cc1ccc(C#Cc2ccc(F)c([C@@]3(CF)N=C(N)S[C@@]4(Cn5ccnc5)C[C@H]43)c2)nc1
6. Cc1cc(C#N)cnc1C#Cc1ccc(F)c([C@@]2(C)N=C(N)S[C@@]3(C#N)C[C@H]32)c1
7. N#Cc1ccc(C#Cc2ccc(F)c([C@@]3(CF)N=C(N)S[C@@]4(CF)C[C@H]43)c2)nc1
8. N#Cc1ccc(C#Cc2ccc(F)c([C@@]3(CF)N=C(N)S[C@@]4(CC(N)=O)C[C@H]43)c2)nc1

A.
2.79
1.77
3.05
2.11
2.07
1.88
2.43
2.18

I have 6 compounds here; please give me log10(IC50) for each one.
1. NC1=N[C@](CF)(c2cc(C#Cc3ccc(OCc4ncco4)cn3)ccc2F)[C@@H]2C[C@]2(CF)S1
2. Cc1cc(C#N)cnc1C#Cc1ccc(F)c([C@@]2(CF)N=C(N)S[C@@]3(/C=C/C(=O)N4CCOCC4)C[C@H]32)c1
3. N#Cc1cnc(C#Cc2ccc(F)c([C@@]3(CF)N=C(N)S[C@@]4(/C=C/C(=O)N5CCOCC5)C[C@H]43)c2)nc1
4. N#Cc1ccc(C#Cc2ccc(F)c([C@@]3(CF)N=C(N)S[C@@]4(/C=C/C(=O)N5CCOCC5)C[C@H]43)c2)cc1
5. C#CCOc1ccc(C#Cc2ccc(F)c([C@@]3(C)N=C(N)S[C@@]4(C(=O)N(C)C)C[C@H]43)c2)nc1
6. Cc1cc(C#N)cnc1C#Cc1ccc(F)c([C@@]2(CF)N=C(N)S[C@@]3(CF)C[C@H]32)c1

A.
1: 3.31; 2: 1.26; 3: 3.28; 4: 1.69; 5: 2.18; 6: 2.36
